Assignment: determine reported period change for the given compounds.
- assaySummary: circadian clock period modulators, cell-based, LOPAC library, luminescence reporter (AID 2774);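 also: values are relative to mean of DMSO wells on each plate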
- conditionContext: circadian reporter cells, at 7 µM, actives lie on both sides
Activity calls are given as the source filed them. No rule for the calls is given here.

Reference set, count: 3
compound: CC(C)(C)c1o[nH]c(=O)c1CC(N)C(=O)O (centres undefined)
testValue: -0.635 h (inactive)
//
compound: CC(O)C(C)OC(=O)[C@@H]1C[C@@H]2c3cccc4c3c(cn4C(C)C)C[C@H]2N(C)C1 (some centres undefined)
testValue: 0.035 h (inactive)
//
compound: O=c1[nH]oc2c1CCNC2
testValue: 0.075 h (inactive)

// next entry
stdin: Endpoint output: period change of "O=c1[nH]c2ccccc2n1C1CCN(CCCC(c2ccc(F)cc2)c2ccc(F)cc2)CC1" . Value?
stdout: 0.045 h (inactive)

====

- assaySummary: inhibitors of mitochondrial cytochrome c release, biochemical, purified mitochondria (AID 1603);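 also: mouse liver mitochondria challenged with calcium chloride; signal normalized to the plate average as 100%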
- conditionContext: stronger effect = lower value
Rule for this label: Met means cytochrome c release ratio is less than 1; Not met means cytochrome c release ratio is at least 1.

Reference set (8 entries):
compound: O=c1ccc2cc(O[C@H]3O[C@H](CO)[C@@H](O)[C@H](O)[C@H]3O)c(O)cc2o1
discreteLabel: Met

compound: c1ccc2nc(N3CCNCC3)ccc2c1
discreteLabel: Met

compound: [N-]=[N+]=CC(=O)OCC(N)C(=O)O (stereo not given)
discreteLabel: Not met

compound: C[n+]1cc2c3c(ccc2c2ccc4cc5c(cc4c21)OCO5)OCO3
discreteLabel: Not met

compound: CN1CC(CNC(=O)OCc2ccccc2)CC2c3cccc4c3c(cn4C)CC21 (stereo not given)
discreteLabel: Met

compound: CC[C@@H]1C(=O)OC[C@@H]1Cc1cncn1C
discreteLabel: Not met

compound: CC[C@@H]1/C=C/C=C/C[C@H](C)[C@@H](O)[C@](C)(O)C(=O)[C@H](C)[C@@H](O)[C@H](C)C(=O)[C@H](C)[C@@H](O)[C@H](C)/C=C/C(=O)O[C@H]2[C@@H](C)[C@@H](CC1)O[C@@]1(CC[C@@H](C)[C@@H](C[C@H](C)O)O1)[C@@H]2C
discreteLabel: Not met

compound: ClC1C(Cl)C(Cl)C(Cl)C(Cl)C1Cl (stereo not given)
discreteLabel: Not met

stdin: Is cytochrome c release ratio of "O=C1CC[C@@]2(O)[C@H]3Cc4ccc(O)c5c4C2(CCN3CC2CC2)[C@H]1O5" strictly below 1?
stdout: Not met

stdin: Is cytochrome c release ratio of CNC(C)C(=O)c1ccccc1 (stereo not given) strictly below 1?
stdout: Not met

stdin: Is cytochrome c release ratio of "CN(C)C(=S)SSC(=S)N(C)C" strictly below 1?
stdout: Not met

stdin: Is cytochrome c release ratio of "C[C@@H]1CC[C@H]2[C@@H](C)C(=O)O[C@@H]3OC4(C)CC[C@@H]1[C@]32OO4" strictly below 1?
stdout: Not met

stdin: Is cytochrome c release ratio of CC1CC[C@@]2(NC1)OC1CC3C4CC=C5CC(O)CCC5(C)C4CCC3(C)C1[C@@H]2C (stereo not given in full) strictly below 1?
stdout: Not met

====

- assaySummary: CellTiter-Glo luminescent readout of SW480 viability loss, NPC library primary (AID 1117343)
- conditionContext: CellTiter-Glo luminescence; at 20 µM (top of the series)
The source made the active and inactive calls.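 How the source made its calls: active means compounds that lower viability of the colon cancer cells in the luminescence readout, with no numeric limit stated; inactive means the rest.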
The reply should name one outcome from active, inactive

Reference set (4 entries):
molecule: CCCC(C)C1(CC)C(=O)N=C(S)NC1=O (centres undefined)
discreteLabel: active
--
molecule: CNCC(O)c1ccc(O)cc1 (centres undefined)
discreteLabel: inactive
--
molecule: CN(C)C(=S)SSC(=S)N(C)C
discreteLabel: active
--
molecule: Clc1ccc(CCC(Cn2ccnc2)Sc2c(Cl)cccc2Cl)cc1 (centres undefined)
discreteLabel: active

stdin: What call does the record list for "O=C1OC(c2ccc(O)c(S(=O)(=O)O)c2)(c2ccc(O)c(S(=O)(=O)O)c2)c2c(Br)c(Br)c(Br)c(Br)c21" ?
stdout: active

stdin: What call does the record list for "NCCc1ccc(O)cc1" ?
stdout: inactive

stdin: What call does the record list for "CCOc1cc(C=O)ccc1O" ?
stdout: inactive

stdin: What call does the record list for "CN(C)[C@@H]1C(=O)C(C(N)=O)=C(O)[C@@]2(O)C(=O)C3=C(O)c4c(O)cccc4[C@@](C)(O)[C@H]3C[C@@H]12" ?
stdout: inactive
